Values were extracted from patent US20260199350A1.

target: CK2A1 (Homo sapiens); construct: purchased Eurofins; assay: Radiometric kinase assay (Eurofins), CK2A1; assay type: biochemical; conditions: flavanones; FIGS. 4C-4E (NanoBRET, THP-1 reporter, radiometric CK2α1); read-out: IC50 as CK2 inhibitors and anti-inflammatory agents
Measured IC50 of individual entries

1. O=C1C[C@@H](c2ccc(O)cc2)Oc2cc(O)cc(O)c21; > 10 µM

Next compound, IC50 to be filled in.
[ask] Query (compound): COc1ccc(C2CC(=O)c3c(OC)cc(OC)cc3O2)cc1 (centres unmarked) ; field requested: IC50
[reply] > 10 µM

* * *

// values below are reported log10(IC50)
target: CK2A2 (Homo sapiens, UniProt P19784); construct: purchased Eurofins; experiment: Radiometric kinase assay (Eurofins), CK2A2; type: biochemical; conditions: Table 3; halogenated flavones; read-out: CK2A2 RAD IC50
Sequence (P19784 whole entry): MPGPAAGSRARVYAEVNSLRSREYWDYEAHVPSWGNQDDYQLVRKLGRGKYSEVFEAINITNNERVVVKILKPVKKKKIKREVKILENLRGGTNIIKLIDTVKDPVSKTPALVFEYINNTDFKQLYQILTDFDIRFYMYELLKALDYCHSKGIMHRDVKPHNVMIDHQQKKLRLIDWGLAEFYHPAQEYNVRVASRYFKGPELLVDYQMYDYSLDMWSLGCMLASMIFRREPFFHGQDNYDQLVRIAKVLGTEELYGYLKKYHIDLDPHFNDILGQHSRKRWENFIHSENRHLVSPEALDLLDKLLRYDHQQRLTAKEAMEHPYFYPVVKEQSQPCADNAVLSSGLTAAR
The figures below represent log10 of IC50, where IC50 is stated in nM.

1. O=c1cc(-c2ccc(O)c(Br)c2)oc2ccc(Cl)cc12 [JKT.778A]; 1.89
2. O=c1cc(-c2ccc(O)c(Br)c2)oc2c(Br)cc(Cl)cc12 [JKT.714A]; 0.90
3. O=c1cc(-c2ccc(O)c(Cl)c2)oc2c(Cl)cc(Cl)cc12 [JKT.725A]; 1.08
4. COc1ccc2c(=O)cc(-c3ccc(O)c(Cl)c3)oc2c1Br [JKT.787A]; 1.20
5. O=c1cc(-c2ccc(O)c(Br)c2)oc2c(Br)cccc12 [JKT.744B]; 1.23

[ask] I have this compound here, COc1ccc2c(=O)cc(-c3ccc(O)c(C(F)(F)F)c3)oc2c1Br [JKT.786A] , and I need its recorded log10(IC50).
[reply] 3.23

[ask] I am curious: what log10(IC50) value has been reported for O=c1cc(-c2ccc(O)c(Br)c2)oc2c(Cl)cc(Cl)cc12 [JKT.715A] ?
[reply] 1.20

[ask] If you can, please state the reported log10(IC50) value of O=c1cc(-c2ccc(O)c(C(F)(F)F)c2)oc2c(Br)cccc12 [JKT.751A] .
[reply] 2.80

[ask] For the compound shown here, O=c1cc(-c2ccc(O)c(I)c2)oc2c(Br)cc(Br)cc12 [JKT.724A] , give the reported log10(IC50).
[reply] 0.85

[ask] Name the reported log10(IC50) value associated with the compound O=c1cc(-c2ccc(O)c(Cl)c2)oc2c(Br)cc(Br)cc12 [JKT.721A]
[reply] 0.70

* * *

biological target: CK2A2 (Homo sapiens); construct: purchased Eurofins; test: Radiometric kinase assay (Eurofins), CK2A2; format: biochemical; settings: Table 7; read-out: CK2A2 RAD IC50
measurement kind: pIC50
Keep in mind that pIC50 stands for -log10 of concentration in molar terms.

1. O=c1cc(-c2ccc(O)c(Cl)c2)[nH]c2c(Br)cc(Br)cc12 [Compound 1103A]; 7.15
2. O=c1cc(-c2cc(Br)c(O)cn2)[nH]c2c(Br)cc(Br)cc12 [Compound 1066A]; 5.89

Alright, here's another molecule for you.
[ask] Data request, read-out pIC50, for O=c1cc(-c2ccc(O)c(C(F)(F)F)c2)[nH]c2c(Br)cc(Br)cc12 [Compound 1095B]
[reply] 6.16

* * *

biological target: CK2A2 (Homo sapiens); construct: purchased Eurofins; assay: Radiometric kinase assay (Eurofins), CK2A2; type: biochemical; conditions: Table 11; aurones; read-out: CK2A2 RAD IC50
measurement kind: pIC50
Please keep in mind that pIC50 is minus log10 of the molar concentration; only the number is needed.

# annotated cases, reported pIC50 shown
1. O=C1/C(=C/c2ccc(O)c(Cl)c2)Oc2c(Br)cc(Br)cc21 [JKT.726A]; 7.59
2. COc1c(Br)cc2c(c1Br)O/C(=C\c1ccc(O)c(C(F)(F)F)c1)C2=O [JKT.763A]; 6.20
3. COc1ccc2c(c1Br)O/C(=C\c1ccc(O)c(I)c1)C2=O [JKT.814A]; 6.91

[ask] # lookup: pIC50 of COc1ccc2c(c1Br)O/C(=C\c1ccc(O)c(C(F)(F)F)c1)C2=O [JKT.819A]
[reply] 6.18

[ask] Return reported pIC50; argument: COc1c(Br)cc2c(c1Br)O/C(=C\c1ccc(O)c(Cl)c1)C2=O [JKT.761A]
[reply] 7.32

[ask] Need pIC50 of O=C1/C(=C/c2cc(Cl)c(O)c(Cl)c2)Oc2c(Br)cc(Br)cc21 [JKT.822A] , thanks.
[reply] 6.09

* * *

target: CK2A1 (Homo sapiens, UniProt P68400); construct: purchased Eurofins; assay: Radiometric kinase assay (Eurofins), CK2A1; assay type: biochemical; details: Table 8; quinazolinones; read-out: CK2A1 RAD IC50
Sequence (P68400 whole entry): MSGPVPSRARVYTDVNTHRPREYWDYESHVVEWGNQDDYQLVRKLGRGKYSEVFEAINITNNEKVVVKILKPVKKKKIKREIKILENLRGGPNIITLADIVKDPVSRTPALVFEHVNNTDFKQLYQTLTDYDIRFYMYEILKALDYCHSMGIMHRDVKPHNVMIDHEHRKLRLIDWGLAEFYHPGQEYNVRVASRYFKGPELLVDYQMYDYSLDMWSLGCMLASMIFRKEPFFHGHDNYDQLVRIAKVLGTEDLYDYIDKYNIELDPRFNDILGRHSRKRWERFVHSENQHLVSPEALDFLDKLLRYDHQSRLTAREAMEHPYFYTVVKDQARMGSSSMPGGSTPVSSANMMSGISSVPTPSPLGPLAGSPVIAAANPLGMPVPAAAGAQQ
# maps each entry to its pIC50
Scale: pIC50 equals -log10([C]), with [C] in mol/L.

1. COc1nc(-c2ccc(O)c(Br)c2)nc2c(Br)cc(Br)cc12 [JKT.842A]; 6.00

Below: the item to evaluate.
[ask] GET /values?readout=pIC50&item= O=c1[nH]c(-c2ccc(O)c(Cl)c2)nc2c(Br)cc(Br)cc12 [JKT.772A]
[reply] 7.64

* * *

# IC50 per record follows
target: CK2A1 (Homo sapiens); construct: purchased Eurofins; assay: Radiometric kinase assay (Eurofins), CK2A1; type: biochemical; conditions: Table 7; read-out: CK2A1 RAD IC50
Write down the numeric answer in nM and omit the unit.

# example entries with known answers
1) O=c1cc(-c2cc(Br)c(O)cn2)[nH]c2c(Br)cc(Br)cc12 [Compound 1066A]; 2700
2) O=c1cc(-c2ccc(O)c(C(F)(F)F)c2)[nH]c2c(Br)cc(Br)cc12 [Compound 1095B]; 488

Shifting focus to the molecule that follows.
[ask] Consider the molecule O=c1cc(-c2ccc(O)c(Cl)c2)[nH]c2c(Br)cc(Br)cc12 [Compound 1103A] and give its measured IC50.
[reply] 141

* * *

target: CK2A1 (Homo sapiens); construct: purchased Eurofins; test: Radiometric kinase assay (Eurofins), CK2A1; assay type: biochemical; conditions: Table 11; aurones; read-out: CK2A1 RAD IC50
Output: class label from IC50. Mapping: bottom range: < 60 nM; center range: ≥ 60 nM and < 500 nM; top range: ≥ 500 nM

1. COc1c(Br)cc2c(c1Br)O/C(=C\c1ccc(O)c(Cl)c1)C2=O [JKT.761A]; center range
2. COc1c(Br)cc2c(c1Br)O/C(=C\c1ccc(O)cc1Cl)C2=O [JKT.762A]; top range
3. COc1cc(/C=C2\Oc3c(ccc(OC)c3Br)C2=O)ccc1O [JKT.820A]; bottom range
4. COc1ccc2c(c1Br)O/C(=C\c1ccc(O)cc1Br)C2=O [JKT.816A]; center range
5. COc1ccc2c(c1Br)O/C(=C\c1cc(Cl)c(O)c(Cl)c1)C2=O [JKT.824A]; center range

[ask] Any idea which band COc1c(Br)cc2c(c1Br)O/C(=C\c1ccc(O)c(Br)c1)C2=O [JKT.759A] is in?
[reply] bottom range

[ask] Consider COc1c(Br)cc2c(c1Br)O/C(=C\c1ccc(O)c(I)c1)C2=O [JKT.813A] . To which IC50 class does it belong?
[reply] center range

[ask] Dear colleague, I would appreciate it if you could identify the bin for COc1c(Br)cc2c(c1Br)O/C(=C\c1ccc(C(=O)O)cc1)C2=O [JKT.765A] and reply at your convenience.
[reply] top range

* * *

Below, each entry is listed alongside its reported pIC50.
molecular target: CK2A1 (Homo sapiens, UniProt P68400); construct: purchased Eurofins; test: Radiometric kinase assay (Eurofins), CK2A1; format: biochemical; conditions: Table 8; quinazolinones; read-out: CK2A1 RAD IC50
pIC50 here: minus log base 10 of the concentration, concentration in moles per litre.

1. Cn1c(-c2cc(F)c(O)c(F)c2)nc2c(Br)cccc2c1=O [JKT.873A]; 6.25
2. O=c1[nH]c(-c2ccc(O)c(Br)c2)nc2c(Br)cc(Br)cc12 [JKT.734C]; 7.62
3. O=c1[nH]c(-c2cc(Br)c(O)cn2)nc2c(Br)cc(Br)cc12 [JKT.932F]; 6.97

Continue with the next compound.
[ask] Can you look up pIC50 on CK2A1 (Homo sapiens, UniProt P68400) for O=c1[nH]c(-c2ccc(O)c(C(F)(F)F)c2)nc2c(Br)cc(Br)cc12 [JKT.775A] ?
[reply] 6.43

* * *

Target: CK2A1 (Homo sapiens, UniProt P68400)
Construct: purchased Eurofins
Experiment: Radiometric kinase assay (Eurofins), CK2A1
Assay type: biochemical
Details: Table 12; read-out: CK2A1 RAD IC50
Source text: FIGS. 4A-4F characterize flavones for in vitro and in-cell CK2 inhibition. […] Representative of two independent experiments. […] Nonlinear fit was used to calculate IC50. […] Nonlinear fit was used to calculate IC50. […] Nonlinear fit was used to calculate IC50. […] Normalized to DMSO, data are representative of three independent experiments. • ^1Radiometric kinase assay from Eurofins. Performed in astrocytes with a Promega Lumit IL-6 kit.
measurement kind: IC50 (nM)
Answer format: numeric, nM implied, no suffix.

1) O=C(O)c1ccc(/C=C2\Oc3c(Br)cccc3C2=O)cc1 [Compound 1210A]; 703
2) COc1cc(/C=C2\Oc3c(cc(Br)c(OC)c3Br)C2=O)ncc1O [Compound 1164A]; 120
3) C#Cc1cc(/C=C2\Oc3c(ccc(OC)c3Br)C2=O)ccc1O [Compound 1231A]; 180
4) O=C1/C(=C/c2ccc(O)c(C3CC3)c2)Oc2c(Br)cccc21 [Compound 1220A]; 4450
5) COc1ccc2c(c1Br)O/C(=C\c1cc(Br)c(O)cn1)C2=O [Compound 1190B]; 184
6) COc1c(Br)cc2c(c1Br)O/C(=C\c1cc(Br)c(O)cn1)C2=O [Compound 1174A]; 86

Field: next compound
[ask] Please report the recorded IC50 for O=C1/C(=C/c2cc(Br)c(O)cn2)Oc2c(Br)cc(Br)cc21 [Compound 1173A] .
[reply] 60
